# assayed_target: TAK1 (Homo sapiens)
# Sequence (O43318 1-303 limits assumed): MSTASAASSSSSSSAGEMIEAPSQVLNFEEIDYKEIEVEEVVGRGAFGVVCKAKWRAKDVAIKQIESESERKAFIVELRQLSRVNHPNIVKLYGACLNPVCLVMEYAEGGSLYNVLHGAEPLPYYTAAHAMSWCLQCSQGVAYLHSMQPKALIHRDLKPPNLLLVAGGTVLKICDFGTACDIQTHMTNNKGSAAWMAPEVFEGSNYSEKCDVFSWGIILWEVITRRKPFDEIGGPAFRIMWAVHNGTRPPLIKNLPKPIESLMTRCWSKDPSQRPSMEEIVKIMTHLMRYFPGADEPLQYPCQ
# Sequence (Q15750 437-504 partner limits assumed): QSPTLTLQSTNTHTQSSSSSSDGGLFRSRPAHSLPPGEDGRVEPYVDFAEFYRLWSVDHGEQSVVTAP
# assay: in vitro TAK1 inhibition assay
# Type: biochemical
# experimental_parameters: in vitro TAK1 inhibition
quantity_measured: TAK1 inhibitory activity, result in words

INSERT INTO measurements (compound, experimental_result) VALUES
  ('COc1cc(O)c2c(c1)/C=C/C[C@H](O)[C@H](O)C(=O)CCC[C@H](C)OC2=O', 'loss of activity'),
  ('COc1cc(O)c2c(c1)[C@H]1O[C@@H]1C[C@H](O)[C@H](O)C(=O)CCC[C@H](C)OC2=O [Compound 5, dihydrohypothemycin]', 'loss of activity'),
  ('COc1cc(O)c2c(c1)/C=C/C[C@H](O)[C@H](O)[C@@H](O)/C=C/C[C@H](C)OC2=O', 'loss of activity');

Source of measurements: paper PMC4661079
